experiment: A CellTox Green Cytotoxicity Assay to monitor cytotoxicity in HepG2 cells - 0 hour (AID 1224882); conditions: CellTox Green fluorescence; series mostly up to 76.8 µM; further: nearly all actives have a fitted effect of over 35% in size
Calls of active or inactive are those of the source. The call rests on the fitted dose curve; in most records, active means well fitted activation curve with a large enough effect in the repeat runs; inconclusive means weak or mixed curves; inactive means flat fitted curve, though single readings scatter.
Classes used: true (1) for active, false (0) for inactive

Compound | Class Assignment
OCCCCCCCCCCCCBr | false (0)
ON=C1CCCC1 | false (0)
CCN(CC)CCCC(C)Nc1c2ccc(Cl)cc2nc2ccc(OC)cc12 (configuration not stated) | true (1)
CCOC(=O)O[C@]1(C(=O)OCCl)CC[C@H]2[C@@H]3CCC4=CC(=O)C=C[C@]4(C)[C@H]3[C@@H](O)C[C@@]21C | false (0)
CCCCCCCCCCCCCCCCCC[N+](C)(C)Cc1ccccc1 | false (0)
c1ccc(CSCc2ccccc2)cc1 | false (0)
CC[C@H]1O[C@]2(CC[C@@H]1C)C[C@@H]1C[C@@H](C/C=C(\C)C[C@@H](C)/C=C/C=C3\CO[C@@H]4[C@H](O)C(C)=C[C@@H](C(=O)O1)[C@]34O)O2 | false (0)
Cc1cc(N)c(S(=O)(=O)O)cc1Cl | false (0)
CC(=O)OCC(C)OC(C)=O (configuration not stated) | false (0)
CCC(CN)=C(c1ccccc1)c1ccccc1 | false (0)
CN(C)c1ccc(SC#N)cc1 | false (0)
CC(C)(C)CC(C)(C)c1ccc(O)c(Cc2ccc(Cl)cc2Cl)c1 | false (0)
CCCCCCC[N+](CC)(CC)CCCCc1ccc(Cl)cc1 | false (0)
CC(C)c1ccc2c(c1)CC[C@H]1[C@](C)(CN)CCC[C@]21C | false (0)
CC1=NC(C)OC1C (configuration not stated) | false (0)
CCN(CC)CCNC(=O)c1c(C)[nH]c(/C=C2\C(=O)Nc3ccc(F)cc32)c1C | true (1)
O=C(OCC1CO1)C1CCCCC1C(=O)OCC1CO1 (configuration not stated) | false (0)
CC(C)n1nc(-c2cc3cc(O)ccc3[nH]2)c2c(N)ncnc21 | false (0)
N=C1N=C(N)c2cc3ccccc3cc21 | false (0)
COc1cc(-c2ccc(N=C=O)c(OC)c2)ccc1N=C=O | false (0)
O=c1[nH]sc2cc(Cl)ccc12 | false (0)
CC[C@@]1(O)C(=O)OCc2c1cc1n(c2=O)Cc2c-1nc1ccccc1c2/C=N/OC(C)(C)C | false (0)
c1cc(C(c2ccc(OCC3CO3)cc2)c2ccc(OCC3CO3)cc2)ccc1OCC1CO1 (configuration not stated) | false (0)
COc1cc(/C=C/C(=O)O[C@H]2CC[C@]34C[C@]35CC[C@]3(C)[C@@H]([C@H](C)CCC=C(C)C)CC[C@@]3(C)[C@@H]5CC[C@H]4C2(C)C)ccc1O | false (0)
Cc1onc(-c2ccccc2Cl)c1C(=O)N[C@@H]1C(=O)N2[C@@H]1SC(C)(C)[C@@H]2C(=O)O | false (0)
CCC(N)(CO)CO | false (0)
CCCCCCCCCCCC(=O)NCCCN(C)C | false (0)
CCCCCCCCCOC(=O)c1ccc(O)cc1 | false (0)
CC(C)OC(=O)c1cc2c(OCC(O)CNC(C)(C)C)cccc2[nH]1 (configuration not stated) | false (0)
CCN(C(=O)N(CC)c1ccccc1)c1ccccc1 | false (0)
COC(=O)C1=C(C)NC(C)=C(C(=O)OCCc2ccc(N3CCN(C(c4ccccc4)c4ccccc4)CC3)cc2)C1c1cccc([N+](=O)[O-])c1 (configuration not stated) | false (0)
CCN(Cc1cccnc1)C(=O)c1cccc(Cl)c1[C@]1(C)C(=O)N(Cc2ccc(OC)cc2OC)c2ccc(Cl)cc21 | false (0)
N=C1N=C(N)c2ccccc21 | false (0)
Cc1cccc(N(C)C(=S)Oc2ccc3c(c2)C2CCC3C2)c1 (configuration not stated) | false (0)
CCCCCCCCCCCC[N+](C)(C)CCCCCCCCCCCC | false (0)
O=C1CCCc2c1cc1ccc3cccc4ccc2c1c34 | false (0)
Clc1ccc(C(Cn2ccnc2)OCc2ccc(Sc3ccccc3)cc2)c(Cl)c1 (configuration not stated) | false (0)
Oc1cc2ccccc2c2ccccc12 | false (0)
C=CC(=O)OCC(CO)(COCC(COC(=O)C=C)(COC(=O)C=C)COC(=O)C=C)COC(=O)C=C | false (0)
O=C(N/N=C/c1ccccc1O)c1ccncc1 | false (0)
Cc1[nH]nc2c1N=C(c1ccccc1Cl)c1cc([N+](=O)[O-])ccc1N2 | false (0)
CC(C)(C)c1ccc(C(=O)O)cc1 | false (0)
COC(=O)c1cc(Cl)ccc1OC | false (0)
C=CC(=O)OCC(CO)(COC(=O)C=C)COC(=O)C=C | false (0)
Cc1cc(O)c2ccccc2c1O | false (0)
C[n+]1ccn(Cc2ccccc2)c1 | false (0)
CC(C)(C)CC(C)(C)c1ccc(OCCOCC[N+](C)(C)Cc2ccccc2)cc1 | false (0)
